Reference for the values: the Human Domainome abundance scans (Beltran et al. 2025)

B1: Pituitary-specific positive transcription factor 1, residues 130 to 198; numbered along this chain, P28069 (parent)
chain: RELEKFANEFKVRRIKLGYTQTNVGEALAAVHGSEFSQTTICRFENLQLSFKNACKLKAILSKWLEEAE

Variants of: B1
Test Name: abundance fitness (aPCA) (normalised: wild type 0, dead -1); higher = more abundant; growth selection in yeast, the domain comes from the species named
Experimental Context: Homo sapiens
Label scheme for abundance fitness: lower than -0.3 is condition not met, -0.3 and above is condition met.

The examples below pair each entry with its known result.
{"Mutant": "L49E", "Assigned Category": "condition not met"}
{"Mutant": "I15L", "Assigned Category": "condition met"}
{"Mutant": "A7E", "Assigned Category": "condition met"}

// inclusive: abundance fitness at least -0.3? input: `L65T`
condition not met

// inclusive: abundance fitness at least -0.3? input: `E9W`
condition met

// inclusive: abundance fitness at least -0.3? input: `E45D`
condition not met

// inclusive: abundance fitness at least -0.3? input: `N23M`
condition met
